# method_summary: chemical genetic growth profiling, strain panel (AID 1159580);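 note: tested at 20 µM; growth read once vehicle control cultures reached saturation at 30 °C; 1 = growth at the plate median or of vehicle wells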
# measurement_setup: S. cerevisiae deletion strains, growth OD, locus YDR388W
The campaign covered roughly 5,500 compounds. About 2,000 (36%) were called active. Another 18% or so got no clear call; they are omitted. Cut-off read from the data, not from the text of the source: active = normalized growth mostly below about 0.91 (no sharp cut-off); inconclusive = no clear call, values can overlap the other calls; inactive = mostly above about 0.92. This is one part of the list.
The reply should name one outcome from active, inactive

molecule: c1ccc2c(c1)cc1ccc3cccc4ccc2c1c34
assigned_category: inactive
--
molecule: N[C@@H](Cc1ccc(O)c(O)c1)C(=O)O
assigned_category: inactive
--
molecule: Nc1nc2c(ncn2C2C[C@H](O)[C@@H](CO)O2)c(=O)[nH]1 (stereo not given in full)
assigned_category: active

Problem: For OC[C@@H]1CCCN2CCCC[C@H]12 , what call appears in the results of this test?
Solution: inactive

Problem: Hey, what did the test say about CC(=O)NCCCCCC(=O)O ?
Solution: inactive

Problem: Record request — test call for Nc1ncnc2c1ncn2C1C[C@H](O)[C@@H](CO)O1 (stereo not given in full)
Solution: inactive

Problem: Hi, do you know how Oc1c(I)cc(I)c2cccnc12 came out in this test?
Solution: active

Problem: Recorded test outcome, item O=C(OC1Cc2c(O)cc(O)cc2OC1c1cc(O)c(O)c(O)c1-c1c(C2Oc3cc(O)cc(O)c3CC2OC(=O)c2cc(O)c(O)c(O)c2)cc(O)c(O)c1O)c1cc(O)c(O)c(O)c1 (stereo not given)
Solution: inactive

Problem: What classification did Cc1ccc2cc3c(ccc4ccccc43)c3c2c1CC3 end up with in this test?
Solution: inactive

Problem: // param item: CC(=O)Oc1ccc(Cl)c2cccnc12 ; yields the recorded call
Solution: active

Problem: What call does the record list for C/C=C/c1ccc2c(c1)OCO2 ?
Solution: inactive

Problem: Test call for this molecule, please: Nc1ccc(S(=O)(=O)Nc2ccccn2)cc1
Solution: inactive

Problem: Would you mind telling me which call this test gave CC(Cc1ccc(O)c(O)c1)C(C)Cc1ccc(O)c(O)c1 (stereo not given) ?
Solution: active

Problem: Call for entry O=[N+]([O-])c1cc([As](=O)(O)O)ccc1O :
Solution: active

Problem: Tell me the recorded outcome of this test for CNc1ccccc1C(=O)O .
Solution: inactive

Problem: Given O=C(O)c1cccnc1Nc1cccc(C(F)(F)F)c1 , state the outcome it received in this test.
Solution: inactive

Problem: Could you please tell me the result logged for OC[C@@H](O)[C@@H](O[C@@H]1O[C@H](CO)[C@@H](O)[C@H](O)[C@H]1O)[C@H](O)[C@@H](O)CO in this assay?
Solution: inactive

Problem: Outcome logged for Nc1ncnc2c1ncn2C1O[C@H](COP(=O)(O)O)[C@@H](O)[C@H]1O (stereo not given in full) in this assay:
Solution: active

Problem: Fill in: this test's call for O=C(O)c1ccccc1Nc1cccc(C(F)(F)F)c1 is ___
Solution: inactive

====

# method_summary: chemical genetic growth profiling, strain panel (AID 1159580)
# measurement_setup: S. cerevisiae deletion strains, growth OD, locus YLR262C, strain YPT6
The whole screen tested about 5,500 compounds, of which about 2,000 (36%) were called active. About 18% were inconclusive and are not listed. No stated cut-off is given here; in the data, active means normalized growth mostly below about 0.91 (no sharp cut-off); inconclusive means no clear call, values can overlap the other calls; inactive means mostly above about 0.92. Some of the results follow.
Pick one: active, inactive

Reference set, count: 2
molecule: CSC1=NCN(Cc2ccccc2)CN1
assigned_category: inactive
//
molecule: COc1ccc(NS(=O)(=O)c2c(C)noc2C)cc1
assigned_category: inactive

Problem: For this molecule, state the assay outcome: COc1ccc(OC)c(S(=O)(=O)N2CCc3cc(OC)c(OC)cc3C2C)c1 (stereo unspecified)
Solution: inactive

Problem: Write down the call the test reported for this molecule. Item: CS(=O)(=O)CCCCN=C=S
Solution: inactive

Problem: Each molecule tested received a call. Report the one for CC(=O)c1c(O)c(C)c(O)c2c1OC1=CC(=O)C(C(C)=O)C(=O)C12C (stereo unspecified) .
Solution: inactive

====

# method_summary: chemical genetic growth profiling, strain panel (AID 1159580)
# measurement_setup: S. cerevisiae deletion strains, growth OD, locus YAL026C, strain drs2, stronger effect = lower value
In all, about 5,500 compounds went through this assay and about 2,000 (36%) were called active. Another 18% or so got no clear call; they are omitted. The list shows a part of the results.
# normalized growth annotations

Look over these answered cases.
compound: CCCC(C)C1(CC)C(=O)NC(=O)NC1=O (stereo unspecified)
value_reported: 1 (inactive)
--
compound: CCCC1O[C@@H]2CC3C4CCC5=CC(=O)C=CC5(C)C4[C@@H](O)CC3(C)[C@]2(C(=O)CO)O1 (stereo partly specified)
value_reported: 1.01 (inactive)
--
compound: C=CC(C)(O)CC/C=C(\C)CCC=C(C)C (stereo unspecified)
value_reported: 0.958 (inactive)
--
compound: Nc1ccc([As](=O)(O)O)cc1
value_reported: 1.02 (inactive)
--
compound: CC(=O)Nc1cc([As](=O)(O)O)ccc1O
value_reported: 1.01 (inactive)

Moving on to the next compound.
Problem: State, in one line, measured normalized growth of C=CCC1(C(C)CCC)C(=O)N=C(S)NC1=O (stereo unspecified)
Solution: 1 (inactive)

====

# method_summary: chemical genetic growth profiling, strain panel (AID 1159580);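 note: tested at 20 µM; growth read once vehicle control cultures reached saturation at 30 °C; 1 = growth at the plate median or of vehicle wells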
# measurement_setup: S. cerevisiae deletion strains, growth OD, locus YIR030C, strain dcg1, stronger effect = lower value
Among all 5,500 compounds or so, about 2,000 (36%) were called active. About 18% were inconclusive and are not listed. This is one part of the list.
measure_name: normalized growth
Keep it simple and answer with nothing but the number.

compound: c1ccc2c3c([nH]c2c1)CNCC3
normalized growth: 1.01

Problem: Return normalized growth for the following compound: Oc1c(I)cc(I)c2cccnc12
Solution: 0.095

Problem: Read off the recorded normalized growth for CO[C@H]1/C=C/O[C@@]2(C)Oc3c(C)c(O)c4c(O)c(c(/C=N/N5CCN(C)CC5)c(O)c4c3C2=O)NC(=O)/C(C)=C\C=C\C(C)[C@H](O)[C@@H](C)[C@@H](O)[C@@H](C)[C@@H](OC(C)=O)[C@@H]1C (stereo not given in full)
Solution: 1.02

Problem: Supply measured normalized growth of c1ccc2c(c1)cc1ccc3cccc4ccc2c1c34 in your reply.
Solution: 0.991

Problem: Quote normalized growth reported for Cc1ccc2cc3c(ccc4ccccc43)c3c2c1CC3 please.
Solution: 0.961

====

# method_summary: chemical genetic growth profiling, strain panel (AID 1159580);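 note: tested at 20 µM; growth read once vehicle control cultures reached saturation at 30 °C; 1 = growth at the plate median or of vehicle wells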
# measurement_setup: S. cerevisiae deletion strains, growth OD, locus YML124C, strain tub3, stronger effect = lower value
About 2,000 (36%) of roughly 5,500 compounds were called active. Roughly 18% stayed inconclusive and do not appear here. The list shows a part of the results.
Listing of entries alongside the reported normalized growth.

Illustrative cases are given below, each with its answer.
compound: NC(=NCCC[C@H](N)C(=O)O)NC(CCC(=O)O)C(=O)O (stereo partly specified)
value_reported: 1.01 (inactive)
//
compound: CCCC1O[C@@H]2CC3C4CCC5=CC(=O)C=CC5(C)C4[C@@H](O)CC3(C)[C@]2(C(=O)CO)O1 (stereo partly specified)
value_reported: 1.01 (inactive)
//
compound: CC(C)(C)NCC(O)c1ccccc1Cl (stereo unspecified)
value_reported: 0.984 (inactive)

Problem: Please give measured normalized growth of the following entry: COC(C)(C)CCC[C@H](C)C/C=C/C(C)=C/C(=O)OC(C)C
Solution: 1.03 (inactive)

Problem: Assign normalized growth to the following record: CC(=O)c1c(O)c(C)c(O)c2c1OC1=CC(=O)C(C(C)=O)C(=O)C12C (stereo unspecified)
Solution: 0.96 (inactive)

Problem: Return normalized growth (reported value) for this compound: CC(=O)Nc1ccc(S(=O)(=O)Nc2ccc([N+](=O)[O-])cc2)cc1
Solution: 1 (inactive)

Problem: State, in one line, measured normalized growth of O=C(OC1Cc2c(O)cc(O)cc2OC1c1cc(O)c(O)c(O)c1-c1c(C2Oc3cc(O)cc(O)c3CC2OC(=O)c2cc(O)c(O)c(O)c2)cc(O)c(O)c1O)c1cc(O)c(O)c(O)c1 (stereo unspecified)
Solution: 0.992 (inactive)

Problem: Entry Nc1ccc(S(=O)(=O)Nc2ccccn2)cc1 needs its normalized growth filled in; supply it.
Solution: 1 (inactive)

====

# method_summary: chemical genetic growth profiling, strain panel (AID 1159580);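 note: tested at 20 µM; growth read once vehicle control cultures reached saturation at 30 °C; 1 = growth at the plate median or of vehicle wells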
# measurement_setup: S. cerevisiae deletion strains, growth OD, locus YLL026W, stronger effect = lower value
The campaign covered roughly 5,500 compounds. About 2,000 (36%) were called active. Not shown: some 18% with an inconclusive outcome. This is one part of the list.
Response field label takes 1 (yes) when normalized growth is strictly below 0.07 and 0 (no) in all other cases.

Completed entries (count: 3):
compound: CC(=O)Oc1ccc(Cl)c2cccnc12
assigned_category: 1 (yes)
--
compound: Oc1c(I)cc(Cl)c2cccnc12
assigned_category: 0 (no)
--
compound: CCN(CC)CCNC(=O)c1cc(S(C)(=O)=O)ccc1OC
assigned_category: 0 (no)

Problem: Would you kindly verify if normalized growth of Oc1c(Br)cc(Br)c2cccnc12 is strictly less than 0.07?
Solution: 1 (yes)

Problem: # strict comparison: is reported normalized growth < 0.07? input = Oc1c(I)cc(I)c2cccnc12
Solution: 0 (no)

Problem: A record lists Nc1ncnc2c1ncn2C1C[C@H](O)[C@@H](CO)O1 (some centres not stated) . Is its normalized growth below 0.07?
Solution: 0 (no)

Problem: State whether 0.07 exceeds normalized growth recorded for Nc1ncnc2c1ncn2[C@@H]1O[C@H](CO)[C@@H](O)[C@H]1O .
Solution: 0 (no)
